Value source: paper PMC9455983

- Target Of Assay: delta-opioid receptor (DOR) (Rattus norvegicus, UniProt P33533)
- Construct: Rat cortices were homogenized using 50 mM Tris, pH 7.4, 10 mM MgCl2-6H2O, 200 µM PMSF; from tissue; host or cells: rat cortex membranes
- Sequence (P33533 whole entry): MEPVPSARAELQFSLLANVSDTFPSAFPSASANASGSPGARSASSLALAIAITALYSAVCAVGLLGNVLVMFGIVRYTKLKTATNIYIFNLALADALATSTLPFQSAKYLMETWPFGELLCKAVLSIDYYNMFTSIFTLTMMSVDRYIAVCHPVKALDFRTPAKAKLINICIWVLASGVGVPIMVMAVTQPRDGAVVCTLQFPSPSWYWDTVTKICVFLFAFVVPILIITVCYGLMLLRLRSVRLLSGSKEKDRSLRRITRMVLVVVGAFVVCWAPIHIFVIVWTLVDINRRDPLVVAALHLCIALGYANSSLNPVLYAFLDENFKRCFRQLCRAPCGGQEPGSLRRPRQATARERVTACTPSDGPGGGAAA
- Measurement Description: DOR radioligand competition binding assay ([3H]-DPDPE)
- Condition Info: Delta screening results, second Ki column; unit not printed (apparently M); read-out: Ki (second column)
Metric Name: log10 Ki (log10 of the value in nM)
Heads up, the numbers here are log10 of Ki in nM units.

Enquiry: Recall and state the measured log10 Ki for Cc1cc(O)cc(C)c1C[C@H]1CNC(=N)N1C[C@H](Cc1c(C)cc(O)cc1C)N1C[C@H](Cc2ccccc2)NC1=N [1968-61] .
Return: 2.99

Enquiry: Recall and state the measured log10 Ki for Cc1cc(O)cc(C)c1C[C@H]1CNC(=N)N1C[C@H](CC(C)C)N1C[C@H](CC(C)C)NC1=N [1968-59] .
Return: 3.66

Enquiry: Recall and state the measured log10 Ki for Cc1cc(O)cc(C)c1C[C@H]1CNC(=N)N1C[C@H](Cc1ccccc1)N1C[C@H](Cc2ccc(O)cc2)NC1=N [1968-50] .
Return: 2.84

Enquiry: Recall and state the measured log10 Ki for N=C1NC[C@H](Cc2ccccc2)N1C[C@H](Cc1ccc(O)cc1)N1C[C@H](Cc2ccccc2)NC1=N [1968-5] .
Return: 4.08

Enquiry: Recall and state the measured log10 Ki for Cc1cc(O)cc(C)c1C[C@@H](CN1C(=N)NC[C@@H]1Cc1ccc(O)cc1)N1C[C@H](CC(C)C)NC1=N [1968-31] .
Return: 3.23

Enquiry: Recall and state the measured log10 Ki for Cc1cc(O)cc(C)c1C[C@H]1CN([C@@H](CC(C)C)CN2C(=N)NC[C@@H]2Cc2ccccc2)C(=N)N1 [1968-12] .
Return: 3.24

Enquiry: Recall and state the measured log10 Ki for CC(C)C[C@H]1CN([C@@H](Cc2ccccc2)CN2C(=N)NC[C@@H]2Cc2ccc(O)cc2)C(=N)N1 [1968-69] .
Return: 3.70

Enquiry: Recall and state the measured log10 Ki for Cc1cc(O)cc(C)c1C[C@H]1CN([C@@H](Cc2ccccc2)CN2C(=N)NC[C@@H]2Cc2c(C)cc(O)cc2C)C(=N)N1 [1968-52] .
Return: 2.72

Enquiry: Recall and state the measured log10 Ki for Cc1cc(O)cc(C)c1C[C@H]1CNC(=N)N1C[C@H](Cc1ccc(O)cc1)N1C[C@H](Cc2ccc(O)cc2)NC1=N [1968-54] .
Return: 3.48

Enquiry: Recall and state the measured log10 Ki for Cc1cc(O)cc(C)c1C[C@H]1CN([C@@H](Cc2c(C)cc(O)cc2C)CN2C(=N)NC[C@@H]2Cc2ccccc2)C(=N)N1 [1968-68] .
Return: 2.70

Enquiry: Recall and state the measured log10 Ki for N=C1NC[C@H](Cc2ccccc2)N1C[C@H](Cc1ccc(O)cc1)N1C[C@H](Cc2ccc(O)cc2)NC1=N [1968-6] .
Return: 3.71

Enquiry: Recall and state the measured log10 Ki for CC(C)C[C@H]1CN([C@@H](CC(C)C)CN2C(=N)NC[C@@H]2Cc2ccccc2)C(=N)N1 [1968-11] .
Return: 4.96

Enquiry: Recall and state the measured log10 Ki for C[C@H]1CNC(=N)N1C[C@H](Cc1ccc(O)cc1)N1C[C@H](Cc2ccccc2)NC1=N [1968-37] .
Return: 3.58

Enquiry: Recall and state the measured log10 Ki for Cc1cc(O)cc(C)c1C[C@H]1CN([C@@H](Cc2ccccc2)CN2C(=N)NC[C@@H]2Cc2ccc(O)cc2)C(=N)N1 [1968-20] .
Return: 2.92
